Below, each entry is listed with its recorded EC50.
tested on: P. falciparum (3D7); test: Anti-plasmodial SYBR green assay, P. falciparum 3D7 blood parasites; format: cell-based, Plasmodium falciparum; conditions: Plasmodium falciparum, 3D7, read-out: P. falciparum (3D7) EC50+/−S.D., 3D7 sensitive strain, SYBR green

In the examples that follow, each entry is paired with its recorded EC50.
O=C(NCCCCNCCCNC(=O)c1cc(Br)c(Br)[nH]1)c1cc(Br)c(Br)[nH]1 [Compound 1, pseudoceratidine] = 1.1 µM
O=C(NCCCCNCCCNC(=O)c1cc(Br)c[nH]1)c1cc(Br)c[nH]1 [Compound 31, 2,21-debromopseudoceratidine] = 7 µM
O=C(NCCCCCNC(=O)c1ccc[nH]1)c1ccc[nH]1 [Compound 28] = > 10 µM
Cc1ccc(C(=O)NCCCCNCCCNC(=O)c2ccc(C)s2)s1 [Compound 43] = > 10 µM
O=C(NCCCCNCCCNC(=O)c1cc2ccccc2[nH]1)c1cc2ccccc2[nH]1 [Compound 38] = > 10 µM

Lookup: Please give the measured EC50 for this compound: O=C(NCCCCCCNCCCCCCNC(=O)c1cc(Br)c(Br)[nH]1)c1cc(Br)c(Br)[nH]1 [Compound 25]
Found: 2 µM

Lookup: For O=C(NCCSCCNC(=O)c1cc(Br)c(Br)[nH]1)c1cc(Br)c(Br)[nH]1 [Compound 27] then?
Found: > 10 µM

Lookup: For O=C(NCCCCNCCCNC(=O)c1cccc(Cl)n1)c1cccc(Cl)n1 [Compound 46] then?
Found: > 10 µM

Lookup: For CN(CCCCNC(=O)c1cc(Br)c(Br)[nH]1)CCCNC(=O)c1cc(Br)c(Br)[nH]1 [Compound 16, N-Methyl-pseudoceratidine] then?
Found: 4 µM

Lookup: For O=C(NCCCCNCCCNC(=O)c1cc(Br)c(Br)o1)c1cc(Br)c(Br)o1 [Compound 50] then?
Found: 3 µM

Lookup: For [N-]=[N+]=NCC(=O)N(CCCCNC(=O)c1cc(Br)c(Br)[nH]1)CCCNC(=O)c1cc(Br)c(Br)[nH]1 [Compound 17] then?
Found: > 10 µM

Lookup: For O=C(NCCCCNCCCNC(=O)c1nc2ccccc2[nH]1)c1nc2ccccc2[nH]1 [Compound 39] then?
Found: > 10 µM

Lookup: For O=C(NCCCCNCCCNC(=O)c1ccc(F)[nH]1)c1ccc(F)[nH]1 [Compound 35] then?
Found: > 10 µM

Lookup: For O=C(NCCCNCCCCNCCCNC(=O)c1cc(Br)c(Br)[nH]1)c1cc(Br)c(Br)[nH]1 [Compound 23] then?
Found: 1.9 µM

Lookup: For O=C(NCCCCNCCCNC(=O)c1ccc[nH]1)c1ccc[nH]1 [Compound 29] then?
Found: > 10 µM

Lookup: For O=C(NCCCCCNC(=O)c1cc(Br)c(Br)[nH]1)c1cc(Br)c(Br)[nH]1 [Compound 20] then?
Found: > 10 µM

Hello, the source for this data is paper PMC5989537, in case you need it.
